Taken from patent US11840686B2.

Test system: human PKK mRNA
Assay: Dose-dependent antisense inhibition of human PKK in HepaRG cells, 0.19-5.00 uM (Example 5)
Assay type: cell-based
Conditions: 1.67 μM, HepaRG cells, electroporation, approximately 16 hours; Table 35
Strand notation (5' to 3'): a small letter for the sugar, then the base; units joined by * are phosphorothioate-linked, units joined directly phosphodiester-linked; [ ] holds rarer units or linkages, { } end groups; capitals alone tell only the bases. e = 2'-O-(2-methoxyethyl) (MOE); [5mC] = 5-methylcytosine; d = 2'-deoxy (DNA)
Let's look at some substances and their measured percent inhibition of PKK at 1.67 μM.

{"columns": ["Substance", "System under test", "percent inhibition of PKK at 1.67 μM"],
 "data": [
  ["546301 (antisense eT*eT*eG*eT*eA*dA*dT*dG*dT*d[5mC]*dT*dG*dA*d[5mC]*dA*eG*eA*eT*eT*eT) [compound 546301]", "human PKK mRNA", "53%"],
  ["547602 (antisense eT*e[5mC]*eA*e[5mC]*eT*dG*dT*dA*d[5mC]*d[5mC]*dT*dA*dT*dA*dA*e[5mC]*eT*e[5mC]*eT*eA) [compound 547602]", "human PKK mRNA", "92%"],
  ["531231 (eT*eA*eT*e[5mC]*eA*d[5mC]*dT*dG*dT*dA*d[5mC]*dT*dA*dG*dT*eT*eT*e[5mC]*e[5mC]*eT) [compound 531231]", "human PKK mRNA", "84%"],
  ["546852 (e[5mC]*eA*eG*eT*eA*dT*d[5mC]*dA*d[5mC]*dT*dG*dT*d[5mC]*d[5mC]*dT*eA*eT*eA*eT*e[5mC]; antisense) [compound 546852]", "human PKK mRNA", "78%"],
  ["546889 (eG*eT*e[5mC]*e[5mC]*eT*dA*dT*dG*dT*d[5mC]*dA*d[5mC]*dT*dG*dT*eA*e[5mC]*e[5mC]*eT*eA; antisense) [compound 546889]", "human PKK mRNA", "78%"]
]}
